tested target: UniProt Q8IBV7
assay notes: IC50 for competition of protein binding to Kinobeads;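 also: native unpurified kinases from lysate captured on beads bearing immobilized kinase inhibitors, with bead-bound kinases quantified by mass spectrometry across compound doses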
assay conditions: assay detail: Kinobeads competition in P. falciparum blood-stage lysate
pIC50: −log10 of the molar value.
readout name: pIC50

Query string: Record request: pIC50 value, item O=c1[nH]c2ccc(Cl)cc2c(NC2CN3CCC2CC3)c1-c1nc2ccccc2[nH]1 (stereo unspecified)
Result string: < 4.70

---

tested target: UniProt Q7K6A4
assay notes: IC50 for competition of protein binding to Kinobeads
assay conditions: assay detail: Kinobeads competition in P. falciparum blood-stage lysate
readout name: IC50

Query string: Record request: IC50 value, item O=c1[nH]c2ccc(Cl)cc2c(NC2CN3CCC2CC3)c1-c1nc2ccccc2[nH]1 (stereo unspecified)
Result string: > 20 µM
